Assay Target: Thyrotropin receptor (Homo sapiens)
Test Protocol: qHTS assay to identify small molecule agonists of the thyroid stimulating hormone receptor (TSHR) signaling pathway (AID 1224843); further: nearly all actives have a fitted effect of over 45% in size
Assay Setup: TSHR-HEK293 cells, cAMP HTRF, agonist mode, 30 min; series mostly up to 92.4 µM
Records with an inconclusive call do not appear. Active and inactive are the calls of the source. The call rests on the fitted dose curve.
Can you answer with just one of these options? active, inactive

What was the test verdict on `C=C(C)CCCC` ?
inactive

What outcome does the record of this test show for `c1ccc2c(c1)CCC2` ?
inactive

Assay result, entry `O[C@@H](c1cc(C(F)(F)F)nc2c(C(F)(F)F)cccc12)[C@H]1CCCCN1` — outcome?
inactive

Per the records of this test, what outcome belongs to `O=C1NCN(c2ccccc2)C12CCN(CCCC(c1ccc(F)cc1)c1ccc(F)cc1)CC2` ?
inactive

Could you please tell me the result logged for `Brc1ccccn1` in this assay?
inactive

Field: outcome | Entry: `COC(=O)NCCC[Si](OC)(OC)OC`
inactive

Per the assay record, what outcome was assigned to OCCC(O)CO (configuration not stated) ?
inactive

Assay result, entry `CCOCOCC` — outcome?
inactive

How did this test come out for `CC(C)OC(=O)c1cc(C(=O)OC(C)C)cc([N+](=O)[O-])c1` ?
active

Hi, sorry to bother you, what did the test record for `CC(=O)OC(OC(C)=O)c1ccc([N+](=O)[O-])o1` ?
active

So what was the verdict on `CC(C)(C)c1n[nH]c(=O)n(N)c1=O` in this test?
inactive

Short answer needed: outcome of this test for `CC(C)(C)c1cc(CCC(=O)NCCCCCCNC(=O)CCc2cc(C(C)(C)C)c(O)c(C(C)(C)C)c2)cc(C(C)(C)C)c1O` ?
inactive

Call for entry `CCOC(=O)CN` :
inactive

Given `COc1ccccc1C=O` , state the outcome it received in this test.
inactive

What call does the record list for CC(C)=CC1CC(C)CCO1 (configuration not stated) ?
inactive

Can you look up the reported call for CCCCCCC(C)Nc1ccc(Nc2ccccc2)cc1 (configuration not stated) for me?
inactive

Lab log entry: `CCCCCCCCCC(=O)N(C)C` — outcome as called in the assay?
inactive

Per the assay record, what outcome was assigned to `CCOCN(C(=O)CS(=O)(=O)O)c1c(C)cccc1CC` ?
inactive

Which outcome was assigned to `CCc1ccc(O)c(C(C)(C)C)c1` in this test?
inactive

Hello, I am checking results. What call was entered for CCCC(O)C(O)CO (configuration not stated) ?
inactive

Recorded test outcome, item `CCCCCCCC/C=C/CCCOC(C)=O`
inactive

Could you check what this test reported for `c1cc2c3c(c1)ccc1cccc(c13)C2` ?
inactive

Assay outcome for `C=C[C@](C)(O)CC[C@@H]1[C@@]2(C)CCCC(C)(C)[C@@H]2CC[C@@]1(C)O` : what was it?
active

Name the outcome recorded for `O=CC1CC1` in the assay.
inactive

Could you please tell me the result logged for CC1CCCNC1 (configuration not stated) in this assay?
inactive

Give the logged outcome of this assay for the following compound: `C=CC(=O)OCCOCC(CC)(COCCOC(=O)C=C)COCCOC(=O)C=C`
inactive

GET /call?item= `Cc1cc2c(C(C)C)c(O)c(O)c(C=O)c2c(O)c1-c1c(C)cc2c(C(C)C)c(O)c(O)c(C=O)c2c1O` returns the recorded outcome of this test.
inactive

What classification did `Cc1cn[nH]c1` end up with in this test?
inactive

Short answer needed: outcome of this test for `Cc1cccc(C)c1NC(=O)CN1CCN(CCCC(c2ccc(F)cc2)c2ccc(F)cc2)CC1` ?
inactive

Dear all, I need the recorded test outcome for `Clc1nc2ccccc2s1` , thank you.
inactive

For `C=CC(=O)OCCC#N` , what call appears in the results of this test?
inactive

Per the assay record, what outcome was assigned to `Cc1c(C)n(Cc2ccccc2)c2ccc(C(=O)OCCN(C)C)cc12` ?
inactive

What call does the record list for `CC(=O)c1ccccc1N` ?
inactive

Tell me the assay call for `ClC/C=C\CCl` please.
inactive

What did the test return for `O=C(Nc1ccc(Cl)cc1)Nc1ccc(Cl)c(C(F)(F)F)c1` ?
inactive

For this compound, state the assay outcome: `CC(=O)Oc1ccc(C2(c3ccc(OC(C)=O)cc3)C(=O)Nc3ccccc32)cc1`
inactive

So what was the verdict on `Cc1ccc(-n2[nH]c(C)c(N=Nc3cccc(-c4cccc(C(=O)O)c4)c3O)c2=O)cc1C` in this test?
inactive

Hi, do you know how CCC(C)c1ccccc1 (configuration not stated) came out in this test?
inactive

Hi, sorry to bother you, what did the test record for `CCCN(CCc1cccs1)[C@H]1CCc2c(O)cccc2C1` ?
active

Write down the call the test reported for this compound. Item: CCOC(=O)CC(C)O (configuration not stated)
inactive

Which outcome was assigned to `CC(C)(c1cc(Br)c(O)c(Br)c1)c1cc(Br)c(O)c(Br)c1` in this test?
inactive

Recorded test outcome, item `CCCCCCCCCCCCOC(=O)c1cc(O)c(O)c(O)c1`
inactive

Just curious, what result did `CCOC(/C=C(\C)CCC=C(C)C)OCC` get here?
inactive

Fill in: this test's call for `C=CC/C=C/C/C=C/C/C=C/C` is ___
inactive

# lookup: test call for `c1cc[nH]c1`
inactive

Recorded test call requested for `C/C=C/C(=O)Oc1c(CCCCCC(C)C)cc([N+](=O)[O-])cc1[N+](=O)[O-]`
inactive

Write down the call the test reported for this compound. Item: `Clc1cccnc1`
inactive

So what was the verdict on CC1CNCC(C)O1 (configuration not stated) in this test?
inactive

# outcome recorded in this test, key = `OCCN1CN(CCO)CN(CCO)C1`
inactive

Record lookup: outcome of this test for `Cn1cnc2ncnc(N)c21` ?
inactive

Name the outcome recorded for `Cc1c(C(=O)O)cccc1[N+](=O)[O-]` in the assay.
inactive

Tell me the recorded outcome of this test for `CCCCCCS` .
inactive

Status in this test for `CCCCN(C)C` ?
inactive

For `CCCCCCCC(C)=O` , what call appears in the results of this test?
inactive

Give the logged outcome of this assay for the following compound: `CCCCNc1c(C(=O)OCC)c(C)nc2c1cnn2CC`
inactive

Recorded test call requested for `C[C@@H]1CC[C@H]2C(C)(C)[C@H]3C[C@@]12CC[C@@]3(C)O`
active

I'd appreciate the recorded outcome for `Nc1cc(Cl)c([N+](=O)[O-])cc1O` from this test.
inactive

====

Test Protocol: qHTS assay to identify small molecule antagonists of the estrogen receptor alpha (ER-alpha) signaling pathway - cell viability counter screen (AID 743074);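 further: HEK293 cells carrying ER-alpha-UAS-bla reporter stimulated with 17beta-estradiol; nearly all actives have a fitted effect of over 45% in size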; further: potency means the concentration at half of the fitted maximal effect
Assay Setup: ERalpha-bla HEK293 viability, CellTiter-Glo luminescence, 18 h; series mostly up to 69.4 µM
Results filed as inconclusive are left out. The source made the active and inactive calls. The call rests on the fitted dose curve.
Reported Property: Potency

Compound: C[n+]1c2cc(N)ccc2cc2ccc(N)cc21 (tested in a mixture with another compound)
Reported Property: Potency
Endpoint Value: inactive
--
Compound: C=CC(=O)OCCOCC(CC)(COCCOC(=O)C=C)COCCOC(=O)C=C
Reported Property: Potency
Endpoint Value: inactive
--
Compound: CC1(C)C(=O)N(Br)C(=O)N1Br
Reported Property: Potency
Endpoint Value: inactive
--
Compound: CCCCNc1c(C(=O)OCC)c(C)nc2c1cnn2CC
Reported Property: Potency
Endpoint Value: inactive
--
Compound: CCN(CC)CCCN(c1ccccc1)C1Cc2ccccc2C1
Reported Property: Potency
Endpoint Value: 19 µM (active)

Would you kindly look at the next entry?
Specify Potency for `CCOC(=O)[C@@](C)(N)Cc1ccc(O)c(O)c1` and stop.
inactive

====

Assay Target: Voltage-gated inwardly rectifying potassium channel KCNH2 (Homo sapiens) (UniProt Q12809)
Sequence (Q12809 whole entry, looked up): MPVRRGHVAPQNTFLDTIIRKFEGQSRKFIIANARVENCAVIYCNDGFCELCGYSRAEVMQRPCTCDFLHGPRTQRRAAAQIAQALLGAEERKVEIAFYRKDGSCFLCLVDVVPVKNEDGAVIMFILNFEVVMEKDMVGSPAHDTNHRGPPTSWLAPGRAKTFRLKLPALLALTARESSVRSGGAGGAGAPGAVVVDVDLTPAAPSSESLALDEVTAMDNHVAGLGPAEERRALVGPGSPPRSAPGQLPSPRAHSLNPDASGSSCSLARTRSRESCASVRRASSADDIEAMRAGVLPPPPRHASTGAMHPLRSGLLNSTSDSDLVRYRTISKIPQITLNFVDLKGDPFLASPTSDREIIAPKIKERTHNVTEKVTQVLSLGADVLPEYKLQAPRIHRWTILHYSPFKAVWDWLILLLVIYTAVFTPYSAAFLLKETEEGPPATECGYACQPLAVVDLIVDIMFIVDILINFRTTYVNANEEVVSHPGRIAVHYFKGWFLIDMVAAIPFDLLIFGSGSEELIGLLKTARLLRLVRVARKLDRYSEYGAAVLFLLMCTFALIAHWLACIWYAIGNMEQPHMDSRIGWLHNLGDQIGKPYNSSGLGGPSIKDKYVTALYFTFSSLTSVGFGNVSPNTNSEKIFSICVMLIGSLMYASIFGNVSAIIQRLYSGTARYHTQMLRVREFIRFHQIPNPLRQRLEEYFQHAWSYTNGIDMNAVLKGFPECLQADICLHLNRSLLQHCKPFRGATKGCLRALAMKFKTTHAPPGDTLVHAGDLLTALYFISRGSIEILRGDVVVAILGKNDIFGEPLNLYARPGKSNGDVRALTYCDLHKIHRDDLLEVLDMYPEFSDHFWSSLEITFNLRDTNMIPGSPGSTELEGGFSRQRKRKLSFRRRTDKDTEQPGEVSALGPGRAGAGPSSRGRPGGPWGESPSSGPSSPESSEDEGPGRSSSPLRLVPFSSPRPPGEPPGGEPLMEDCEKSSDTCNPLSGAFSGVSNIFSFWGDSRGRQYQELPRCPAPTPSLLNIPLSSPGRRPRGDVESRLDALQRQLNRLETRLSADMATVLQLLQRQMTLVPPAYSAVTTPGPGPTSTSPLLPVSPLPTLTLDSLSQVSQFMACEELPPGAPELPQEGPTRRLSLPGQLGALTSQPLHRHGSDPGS
Test Protocol: Human Ether-a-go-go-Related Gene (hERG) channel small molecule antagonists: fluorescence cell-based qHTS assay (AID 1671200); further: nearly all actives have a fitted effect of over 50% in size
Assay Setup: hERG-U2OS cells, FluxOR thallium flux fluorescence; series mostly up to 76.8 µM
Records with an inconclusive call do not appear. Active and inactive are the calls of the source. The call rests on the fitted dose curve; in most records, active means well fitted inhibition curve with a large enough effect in the repeat runs; inconclusive means weak or mixed curves; inactive means flat fitted curve, though single readings scatter.
# output must be one of active, inactive

Dear colleague, could you share the recorded outcome for `CC1CCCCC1` when you have a moment?
inactive

What classification did `C=CC(=O)OCCOCC(CC)(COCCOC(=O)C=C)COCCOC(=O)C=C` end up with in this test?
inactive

What classification did `O=C1c2c(O)ccc([N+](=O)[O-])c2C(=O)c2c([N+](=O)[O-])ccc(O)c21` end up with in this test?
inactive

Please let me know the test result on file for `CCN(CC)CCNc1ccc(CO)c2sc3ccccc3c(=O)c12` .
active

Outcome? `CN(C)c1ccc(N=Nc2ccccc2C(=O)O)cc1`
inactive

Hi team, can someone confirm the assay call for `COC(=O)NCCC[Si](OC)(OC)OC` ?
inactive

Would you mind telling me which call this test gave `Cc1cc2c(C(C)C)c(O)c(O)c(C=O)c2c(O)c1-c1c(C)cc2c(C(C)C)c(O)c(O)c(C=O)c2c1O` ?
inactive

Outcome? `O=C(Nc1ccc(Cl)cc1)Nc1ccc(Cl)c(C(F)(F)F)c1`
inactive

Per the records of this test, what outcome belongs to `CCCCCCCCCCCCCCCC` ?
inactive

Please state the recorded outcome for this compound: `CN(Cc1cc(Br)cc(Br)c1N)C1CCCCC1`
active

State the result this test recorded for `CCC(=O)OCCc1ccccc1` .
inactive

Test call for this compound, please: `Cc1ccc2ccc3cccc4ccc1c2c34`
inactive

Please share the test call associated with C=CC(C)C#N (centres undefined) .
inactive

Outcome logged for `C=C(C)CCCC` in this assay:
inactive

How did this test come out for C1CC(COCC2CO2)CCC1COCC1CO1 (centres undefined) ?
inactive

Fill in: this test's call for `Nc1cc(Cl)c([N+](=O)[O-])cc1O` is ___
inactive

Test call for this compound, please: `CCCCCCOc1ccc(O)cc1`
inactive

In this assay, the call recorded for CC(C(O)c1ccccc1)N(C)CCOC(c1ccccc1)c1ccccc1 (centres undefined) was what?
active

Outcome? CCC(C)c1cc([N+](=O)[O-])cc([N+](=O)[O-])c1OC(=O)OC(C)C (centres undefined)
inactive

Identify the outcome logged in this assay for the compound shown: `CCO[Si](CCCSSSSCCC[Si](OCC)(OCC)OCC)(OCC)OCC`
inactive

Given `CCCCOCC` , state the outcome it received in this test.
inactive

So what was the verdict on `CCCC(=O)OCC(COC(=O)CCC)OC(=O)CCC` in this test?
inactive

Given `C[C@H]1O[C@@H](O[C@H]2[C@@H](O)C[C@H](O[C@H]3[C@@H](O)C[C@H](O[C@H]4CC[C@@]5(C)[C@H](CC[C@@H]6[C@@H]5C[C@@H](O)[C@]5(C)[C@@H](C7=CC(=O)OC7)CC[C@]65O)C4)O[C@@H]3C)O[C@@H]2C)C[C@H](O)[C@@H]1O` , state the outcome it received in this test.
inactive

What was the test verdict on `CCCCCCCC/C=C\CCCCCCCC(=O)NCc1ccc(O)c(OC)c1` ?
inactive
